Attribution: ChEMBL document CHEMBL3988442

Biological target: Tryptophan--tRNA ligase (Mycobacterium tuberculosis (strain ATCC 25618 / H37Rv)) (UniProt P9WFT3)
Sequence (P9WFT3 whole entry): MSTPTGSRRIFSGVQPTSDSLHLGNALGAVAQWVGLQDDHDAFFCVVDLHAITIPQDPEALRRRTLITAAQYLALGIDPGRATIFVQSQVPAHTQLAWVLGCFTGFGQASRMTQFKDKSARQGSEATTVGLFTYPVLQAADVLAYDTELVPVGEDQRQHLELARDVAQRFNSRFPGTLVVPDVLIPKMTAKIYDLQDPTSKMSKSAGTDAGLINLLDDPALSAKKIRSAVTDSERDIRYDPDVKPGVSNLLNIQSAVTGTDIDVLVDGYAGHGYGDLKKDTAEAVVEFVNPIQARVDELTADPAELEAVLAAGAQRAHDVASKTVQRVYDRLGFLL
Assay: Biochemical assay for Mt-TrpRS
Type: functional
Design: scale not given: direction of the effect not stated beside the values
Conditions: 10 µM
In all, about 65,000 compounds went through this assay and about 65 (0.1%) showed an effect of 50% or more. The list comes from a sample in which strong results are over-represented; it also holds close analogues and randomly drawn compounds.
Listed next: entries and their corresponding Percent Effect.
# output: bare number, implied unit %

// known answers, use as guide
• Cc1noc(CN(Cc2cccs2)C2CCS(=O)(=O)C2)n1 (stereo not drawn) = -5.5
• CC(C)N1[C@@H](C(=O)NCCN(C)C)C[C@H]2CN(c3ncccn3)C[C@H]21 = 5.77
• CN(Cc1nnc2n1CCC2)C(=O)c1ccc2c(c1)OCO2 = -1.84

For the next question, use this molecule.
Prompt: Please look at this molecule and report its Percent Effect: Cc1nnc2n1CCN(CC(=O)N1CCc3ccccc3C1)C2
Completion: 18.8

----------
Target: Tryptophan--tRNA ligase (Mycobacterium tuberculosis (strain ATCC 25618 / H37Rv)) (UniProt P9WFT3)
Assay: Biochemical assay for Mt-TrpRS
Format: functional
Design: scale not given: direction of the effect not stated beside the values
Settings: 10 µM
About 65 (0.1%) of roughly 65,000 compounds showed an effect of 50% or more. This excerpt belongs to a sample that is enriched for strong results.
quantity-name: Percent Effect (%)
# output: bare number, implied unit %

// known answers, use as guide
* Cc1ccc(N2C[C@@H]3CN(C(=O)c4ccccc4)CCO[C@@H]3C2)nn1 | 12.7
* CCn1c(SC)nnc1C1CCN(C(=O)N2CCCC2)CC1 | -3
* CS(=O)(=O)NC[C@]12COC[C@H]1CN(C(=O)c1ccccc1)C2 | -5.18
* Cc1cccc(CN2CCC[C@@H]3CN(C(=O)c4ccco4)C[C@@H]32)n1 | 0.174
* CC(=O)c1cccc(NC(=O)N(CC(F)F)C2CC2)c1 | 4.27

For the next question, use this compound.
Prompt: Please look at this compound and report its Percent Effect: Cn1cc(CN2CC[C@H]3OCC[C@@H](C(=O)NCc4ccco4)[C@@H]3C2)cn1
Completion: 0.83

----------
Biological target: Tryptophan--tRNA ligase (Mycobacterium tuberculosis (strain ATCC 25618 / H37Rv))
Assay: Biochemical assay for Mt-TrpRS
Assay type: functional
Set-up: scale not given: direction of the effect not stated beside the values
Conditions: 10 µM
Out of some 65,000 compounds screened, about 65 (0.1%) showed an effect of 50% or more. What follows is part of a selection rich in strong results, with near analogues and random picks from the rest.
quantity-name: Percent Effect (%)
# output: bare number, implied unit %

// known answers, use as guide
- CN(C)C(=O)N[C@H]1CN(Cc2ccc3c(c2)OCO3)[C@@H]2CCCO[C@H]12: -1.66
- CCn1cc(NC(=O)NC(CO)Cc2c[nH]c3ccccc23)cn1 (stereo unspecified): 2.58
- O=C(O)CCCC(=O)N1CCC(c2noc3cc(F)ccc23)CC1: 1.46
- CCn1cc(S(=O)(=O)NC(CO)Cc2c[nH]c3ccccc23)cn1 (stereo unspecified): -4.44
- O=C(C1CCC1)N1C[C@H]2CNC[C@H]2C1: 9.01

Prompt: Please look at this molecule and report its Percent Effect: NC(=O)N1CCc2cc(C(=O)O)c(-c3ccsc3)nc2CC1
Completion: -4.21

----------
Target: Tryptophan--tRNA ligase (Mycobacterium tuberculosis (strain ATCC 25618 / H37Rv)) (UniProt P9WFT3)
Assay: Biochemical assay for Mt-TrpRS
Format: functional
Parameters: scale not given: direction of the effect not stated beside the values
Conditions: 10 µM
Screen size: about 65,000 compounds; about 65 (0.1%) showed an effect of 50% or more. The list comes from a sample in which strong results are over-represented; it also holds close analogues and randomly drawn compounds.
quantity-name: Percent Effect

// known answers, use as guide
- c1cncc(CN2CC[C@H]3O[C@@H](COCC4CCOCC4)CC[C@H]32)c1: -0.469%
- O=C(C1CC1)N1CC[C@H]2[C@@H]1CCC(=O)N2c1ccccc1: 6.13%
- Cc1ncsc1CN1C[C@@H]2COC[C@]2(C(=O)NCC2CC2)C1: 0.881%
- c1ccc(Cn2cc(CNCC3CNc4ccnn4C3)cn2)cc1 (stereo not given): 62.4%
- CCCc1nnc(NC(=O)NC(C)Cn2cccn2)s1 (stereo not given): -6.24%
- O=C(c1ccnnc1)N1C[C@H](OCC2CCOCC2)[C@H]2OCCC[C@H]21: -0.419%
- Cc1ccc(N2C[C@H](C(=O)N3CCOCC3)[C@@H]3CCO[C@@H]3C2)nn1: -1.89%
- COCC(=O)N1C[C@@H](c2cccc(F)c2)[C@H]2[C@H]1CCCCCN2C(C)=O: 9.95%

Prompt: Please look at this compound and report its Percent Effect: Cc1cccc(COC[C@]23COC[C@H]2CN(c2ncccn2)C3)n1
Completion: -0.382%

Prompt: Please look at this compound and report its Percent Effect: O=C(NC1CC(F)(F)C1)[C@]12COC[C@H]1CN(Cc1cccnc1)C2
Completion: -2.86%

----------
Listed next: entries and their corresponding Percent Effect.
Biological target: Tryptophan--tRNA ligase (Mycobacterium tuberculosis (strain ATCC 25618 / H37Rv)) (UniProt P9WFT3)
Test: Biochemical assay for Mt-TrpRS
Assay type: functional
Set-up: scale not given: direction of the effect not stated beside the values
Details: 10 µM
Hit rate of the full screen: of about 65,000 compounds, about 65 (0.1%) showed an effect of 50% or more. The entries come from a sample that favours strong results as a whole.
# output: bare number, implied unit %

// known answers, use as guide
• CCN1CCCN(c2ccc(-n3ccc(C)n3)nn2)CC1 = 1.17
• Cc1cc(CN2CCN(C(=O)NCc3cccs3)CC2)no1 = -4.93
• c1cnc(-c2nc(CN3CCCC(Cn4cncn4)C3)cs2)nc1 (stereo not given) = -1.17
• COCCN1CCC(NCc2cc(F)ccc2F)C1 (stereo not given) = 12.2
• Cc1nnc([C@@]23CCO[C@@H]2CCN(S(C)(=O)=O)C3)o1 = 14.4

Prompt: Please look at this compound and report its Percent Effect: COc1c(CNC2CCN(c3ncccn3)CC2)c(C(C)C)nn1C
Completion: 1.66

Prompt: Please look at this compound and report its Percent Effect: Cc1cc(CN2CCN(C(=O)NCc3ccco3)CC2)no1
Completion: 70.1

Prompt: Please look at this compound and report its Percent Effect: COc1c(CNC2CCN(c3ccccn3)CC2)c(C(C)C)nn1C
Completion: 1.1

Prompt: Please look at this compound and report its Percent Effect: CC(C(=O)NCc1ccc(N2CCCCCC2)nc1)S(C)(=O)=O (stereo not given)
Completion: -1.98

Prompt: Please look at this compound and report its Percent Effect: Cc1ncsc1C(=O)N(Cc1ccccn1)C1CC1
Completion: 75.1

----------
Molecular target: Tryptophan--tRNA ligase (Mycobacterium tuberculosis (strain ATCC 25618 / H37Rv)) (UniProt P9WFT3)
Experiment: Biochemical assay for Mt-TrpRS
Type: functional
Parameters: scale not given: direction of the effect not stated beside the values
Conditions: 10 µM
Screen size: about 65,000 compounds; about 65 (0.1%) showed an effect of 50% or more. The entries come from a sample that favours strong results as a whole.
Listed next: entries and their corresponding Percent Effect.
# output: bare number, implied unit %

// known answers, use as guide
- CN(CC(=O)Nc1cccnc1)C1CCCN(c2cccnn2)C1 (stereo not drawn): 57.9
- CNC(=O)c1nc(CN2CCOC(CCCC(C)C)C2)no1 (stereo not drawn): 0.819

Prompt: Please look at this molecule and report its Percent Effect: CCN1CCN(C(=O)c2cc(-c3ccc(C)o3)n[nH]2)[C@H]2CS(=O)(=O)C[C@H]21
Completion: 2.31

Prompt: Please look at this molecule and report its Percent Effect: Cc1cc(C)n(CC2CCCN2C(=O)Cc2c(C)noc2C)n1 (stereo not drawn)
Completion: -1.17

Prompt: Please look at this molecule and report its Percent Effect: CO[C@@H]1CC[C@H]2[C@H]1OCCN2CCOCc1ccccc1
Completion: -7.44

Prompt: Please look at this molecule and report its Percent Effect: COc1cccc(OC)c1CNC(Cc1ccsc1)c1ccc(C)cn1 (stereo not drawn)
Completion: -1.02

Prompt: Please look at this molecule and report its Percent Effect: CC(C)c1noc(CN2CCC(c3ccnn3CCO)CC2)n1
Completion: -1.43

Prompt: Please look at this molecule and report its Percent Effect: Cc1ccc(CN2C[C@H](N3CCOCC3)[C@@H]3OCCC[C@@H]32)o1
Completion: -6.03

Prompt: Please look at this molecule and report its Percent Effect: CC(C)c1nc(CN2CCC(c3ccnn3CCO)CC2)no1
Completion: 61.5

Prompt: Please look at this molecule and report its Percent Effect: CN(Cc1ccco1)[C@@H]1CN(Cc2ccc(F)cc2)[C@@H]2CCCO[C@H]12
Completion: -5.38

Prompt: Please look at this molecule and report its Percent Effect: CCn1cnnc1C1CCN(C(=O)c2cc3c(s2)CCCC3)CC1
Completion: -7.73

Prompt: Please look at this molecule and report its Percent Effect: Cn1nc(C#N)c2c1CN(C(=O)c1ccnnc1)CCC2
Completion: 4.65

Prompt: Please look at this molecule and report its Percent Effect: O=C1CO[C@H]2CN(Cc3ccc4c(c3)OCO4)C[C@H]2N1
Completion: -0.835
